- assay comment: Intrinsic clearance in human liver microsomes at 10 uM incubated for 1 hr in presence of NADPH by LC-MS/MS analysis
- Format: ADME, Microsome
- particulars: read-out: CLH
For each of the compounds below, state its log10 of microsomal CLint at 10 µM.
Use the decimal logarithm of microsomal CLint at 10 µM (µL/min/mg).

List log10 of microsomal CLint at 10 µM for every entry below, keeping the order given.
1. CN(Cc1nc(-c2ccc(C(C)(C)C)cc2)n(C)n1)CC1CC1
2. Cc1cc(OCCN2CCOCC2)nn1-c1ccc2ccccc2c1

1.05
1.03

List log10 of microsomal CLint at 10 µM for every entry below, keeping the order given.
1. Cn1nc(CN2CCCC2)nc1-c1cccc(C2(C(F)(F)F)CC2)c1
2. Cc1cc(-c2nc(CN3CCCC3)nn2C)ccc1C(F)(F)F
3. Cn1nc(CN2CCN(c3ccccc3)CC2)nc1-c1ccc(C(C)(C)C)cc1
4. Cn1nc(CN2CCCC2)nc1-c1ccc(C(C)(C)C)cc1
5. Cn1nc(CN2CCCC2)nc1-c1ccc(C2(C(F)(F)F)CC2)cc1

1: 0.90; 2: 0.97; 3: 1.27; 4: 0.76; 5: 0.60

List log10 of microsomal CLint at 10 µM for every entry below, keeping the order given.
1. Cn1nc(CN2CCCC2)nc1-c1ccc(Cl)c(Cl)c1
2. O=C(O)Cc1ccccc1Nc1c(Cl)cccc1Cl
3. Cc1ncc2n1-c1ccc(Cl)cc1C(c1ccccc1F)=NC2

1: 0.91; 2: 2.28; 3: 2.42

====

- system name: hERG (KCNH2) (Homo sapiens, UniProt Q12809)
- Sequence (Q12809 whole entry): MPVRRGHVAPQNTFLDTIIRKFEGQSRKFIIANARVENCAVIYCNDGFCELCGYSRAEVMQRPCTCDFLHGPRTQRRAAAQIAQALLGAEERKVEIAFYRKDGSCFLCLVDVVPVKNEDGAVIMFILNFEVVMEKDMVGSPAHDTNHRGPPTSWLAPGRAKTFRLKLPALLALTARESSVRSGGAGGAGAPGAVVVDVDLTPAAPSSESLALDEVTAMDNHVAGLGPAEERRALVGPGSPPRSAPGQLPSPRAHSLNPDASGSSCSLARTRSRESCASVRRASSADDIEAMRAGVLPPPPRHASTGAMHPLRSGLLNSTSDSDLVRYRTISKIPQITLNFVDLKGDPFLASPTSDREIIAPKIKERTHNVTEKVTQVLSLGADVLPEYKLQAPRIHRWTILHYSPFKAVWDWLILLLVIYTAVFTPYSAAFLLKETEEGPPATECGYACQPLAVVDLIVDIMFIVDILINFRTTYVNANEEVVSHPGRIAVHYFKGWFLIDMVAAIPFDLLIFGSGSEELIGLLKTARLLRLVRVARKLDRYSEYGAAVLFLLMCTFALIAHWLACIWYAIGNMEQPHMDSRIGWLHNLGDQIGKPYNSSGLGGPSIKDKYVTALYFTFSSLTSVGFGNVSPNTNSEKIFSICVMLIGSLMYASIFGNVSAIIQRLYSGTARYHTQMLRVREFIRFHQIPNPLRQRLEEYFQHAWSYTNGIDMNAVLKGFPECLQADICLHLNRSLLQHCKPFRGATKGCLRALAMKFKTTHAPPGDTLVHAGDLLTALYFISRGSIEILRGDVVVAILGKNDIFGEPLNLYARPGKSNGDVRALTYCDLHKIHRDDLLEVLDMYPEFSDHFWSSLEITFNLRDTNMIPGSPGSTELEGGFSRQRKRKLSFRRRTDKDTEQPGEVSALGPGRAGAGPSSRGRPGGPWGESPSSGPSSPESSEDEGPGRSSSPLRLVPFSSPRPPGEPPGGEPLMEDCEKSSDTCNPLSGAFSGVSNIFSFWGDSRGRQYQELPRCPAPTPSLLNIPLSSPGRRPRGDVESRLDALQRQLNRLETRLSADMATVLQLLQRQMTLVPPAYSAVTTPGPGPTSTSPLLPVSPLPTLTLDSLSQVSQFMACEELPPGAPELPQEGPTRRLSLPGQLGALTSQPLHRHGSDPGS
- assay comment: Binding affinity to human ERG at 1 uM relative to control
- Type: cell-based
- particulars: HEK293 cells, read-out: Activity
endpoint: activity at 1 µM (%)
Give bare numbers, in %.

Value of activity at 1 µM reported for the molecule `Cn1nc(CN2CCCC2)nc1-c1ccc(C(C)(C)C)cc1` is 8.4

====

- assay comment: Ratio of drug concentration in brain to plasma in Sprague-Dawley rat at 10 mg/kg, ip by LC-MS/MS analysis
- Assay type: ADME, organism-based
- particulars: read-out: BPR
endpoint: Kp
Numbers only.

Value of Kp reported for the molecule `Cn1nc(CN2CCCC2)nc1-c1ccc(C(C)(C)C)cc1` is 12

====

- assay comment: Intrinsic clearance in rat liver microsomes at 10 uM incubated for 1 hr in presence of NADPH by LC-MS/MS analysis
- Type: ADME, Microsome
- particulars: read-out: CLH
endpoint: microsomal CLint at 10 µM
In your response, the unit should come after the numeric value.

See these solved cases before continuing.
Value of microsomal CLint at 10 µM reported for the compound `Cc1ncc2n1-c1ccc(Cl)cc1C(c1ccccc1F)=NC2` is 293 µL/min/mg

Value of microsomal CLint at 10 µM reported for the compound `Cn1nc(CN2CCCC2)nc1-c1ccc(C2(C(F)(F)F)CC2)cc1` is 207 µL/min/mg

Value of microsomal CLint at 10 µM reported for the compound `Cn1nc(CN2CCCC2)nc1-c1cccc(C2(C(F)(F)F)CC2)c1` is 144 µL/min/mg

Value of microsomal CLint at 10 µM reported for the compound `Cn1nc(CN2CCN(c3ccccc3)CC2)nc1-c1ccc(C(C)(C)C)cc1` is 29.8 µL/min/mg

Value of microsomal CLint at 10 µM reported for the compound `Cc1cc(OCCN2CCOCC2)nn1-c1ccc2ccccc2c1` is 190 µL/min/mg

Value of microsomal CLint at 10 µM reported for the compound `CN(Cc1nc(-c2ccc(C(C)(C)C)cc2)n(C)n1)CC1CC1` is 196 µL/min/mg

Value of microsomal CLint at 10 µM reported for the compound `Cn1nc(CN2CCCC2)nc1-c1ccc(Cl)c(Cl)c1` is 135 µL/min/mg

Value of microsomal CLint at 10 µM reported for the compound `O=C(O)Cc1ccccc1Nc1c(Cl)cccc1Cl` is 196 µL/min/mg

List microsomal CLint at 10 µM for every entry below, keeping the order given.
1. Cn1nc(CN2CCCC2)nc1-c1ccc(C(C)(C)C)cc1
2. Cc1cc(-c2nc(CN3CCCC3)nn2C)ccc1C(F)(F)F

["72 µL/min/mg", "263 µL/min/mg"]
